target: human GLP-1 receptor (human, UniProt P43220 24-463); assay: cell-based or functional assay
Starred links: 1 amine or outer side, 2 acyl side, 3 side chain; linkers in the order of their positions; H or OH if unused. Non-standard residues stand in square brackets, D forms with d. Groups on a side chain read outwards from the residue. No end group written: not given here. *: point of attachment. C20 diacid = O=C(O)CCCCCCCCCCCCCCCCCCC(=O)*; γGlu = O=C(O)[C@H](CCC(=O)[*:2])N[*:1]; εLys = N[C@@H](CCCCN[*:1])C(=O)[*:2]; Aib = CC(C)(N)C(=O)O
We begin with a simple list: items and their reported EC50, CreLuc assay, 100% hP.

- Binder: "Y[Aib]EGTFTSDYSI[Aib]LEKQAQ[Aib]EFVQWLIK([εLys-γGlu-γGlu-γGlu-γGlu-γGlu-γGlu-γGlu-C20 diacid])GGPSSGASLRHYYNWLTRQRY-NH2 (also: TFA salt) [Compound 43]"
  EC50, CreLuc assay, 100% hP (nM): 5.91
- Binder: "YXEGTFTSDYSIXLEEQAQXAFVQWLIKGGPSSGASLRHYYNWLTRQRY (Aib at 2, 13, 20; K28 side chain: C20DA-gGlu-gGlu-Glu-gGlu-gGlu-gGlu-eLys; C-terminal NH2) [Compound 30]"
  EC50, CreLuc assay, 100% hP (nM): 1.08
- Binder: "YXEGTFTSDYSIXLEKQAQXAFVQWLIKGGPSEYVSLRHYYNWLTRQRY (Aib at 2, 13, 20; K28 side chain: C20DA-gGlu-gGlu-gGlu-gGlu-gGlu-gGlu-eLys; C-terminal NH2) [Compound 78]"
  EC50, CreLuc assay, 100% hP (nM): 12.2
- Binder: "YXEGTFTSDYSIXLEKQAQXAFVEWLIKGGPSSGASXRHYXNWLTRQRY (Aib at 2, 13, 20, 37, 41; K28 side chain: C20DA-gGlu-gGlu-Glu-gGlu-gGlu-gGlu-eLys; C-terminal NH2) [Compound 76]"
  EC50, CreLuc assay, 100% hP (nM): 1.91
- Binder: "YXDGTFTSDYSIXLEKQAQXAFVEWLIKGGPSSGASLRHYYNWLTRQRY (Aib at 2, 13, 20; K28 side chain: C20DA-gGlu-gGlu-gGlu-gGlu-gGlu-gGlu-eLys; C-terminal NH2) [Compound 87]"
  EC50, CreLuc assay, 100% hP (nM): 2
